Reference for the values: ChEMBL document CHEMBL4219213

# run-description: Total AUC in Sprague-Dawley rat at 11.8 mg/kg, po via gavage up to 24 hrs by LC-MS/MS analysis
# Type: ADME, organism-based
# Set-up: dose 11.8 mg/kg, time AUCmax, route oral
# condition-context: in vivo
property-measured: AUC at 24 h (µM·h)
One number for each entry, in µM·h.

Record C=C(C)[C@@H]1CC[C@]2(CNCCCN3CCS(=O)(=O)CC3)CC[C@]3(C)[C@H](CC[C@@H]4[C@@]5(C)CC=C(c6ccc(C(=O)O)cc6)C(C)(C)[C@@H]5CC[C@]43C)[C@@H]12.Cl . Reported AUC at 24 h: 5.44
